Data provenance: patent US7507727B2

# tested_system: c-Myc template DNA (c-myc quadruplex)
# assay_notes: Quadruplex binding / stop assay (Taq polymerase arrest, capillary electrophoresis)
# setup_conditions: read-out: S DATA; Table 1D, stop assay data
measurement_name: IC50 (µM)
Note: unit µM is implicit; provide only the numeric part.

I'd like to know its IC50. The compound in question is N=C(N)NCC1CCCC(CNC(=O)c2cn3c4c(c(NCCCN5CCOCC5)c(F)cc4c2=O)Oc2cc4ccccc4cc2-3)C1 (centres unmarked)
1

What about CN1CCCC1CCNC(=O)c1cn2c3c(c(N4CCC(c5cnccn5)C4)c(F)cc3c1=O)Oc1ccc(C#N)cc1-2 (centres unmarked) [compound 1777] ?
6.8

What about CN1CCCC1CCNC(=O)c1cn2c3c(c(SCCc4cnccn4)c(SCCc4cnccn4)cc3c1=O)Oc1cc3ccccc3cc1-2 (centres unmarked) ?
5.8

What about CN1CCCC1CCNC(=O)c1cn2c3c(c(N(C)C4CCN(Cc5ccccc5)CC4)c(F)cc3c1=O)Oc1cc3ccccc3cc1-2 (centres unmarked) ?
1.75

What about COc1ccc(OC)c(CCNc2c(F)cc3c(=O)c(C(=O)NCCC4CCCN4C)cn4c3c2Oc2cc3ccccc3cc2-4)c1 (centres unmarked) ?
1.75

What about N#Cc1ccc2c(c1)-n1cc(C(=O)NCCN3CCOCC3)c(=O)c3cc(F)c(N4CCC(N)C4)c(c31)O2 (centres unmarked) ?
5.3

----------
# tested_system: c-Myc template DNA (c-myc quadruplex)
# assay_notes: Quadruplex binding / stop assay (Taq polymerase arrest, capillary electrophoresis)
# setup_conditions: read-out: S DATA; Table 1D, stop assay data
measurement_name: pIC50
Scale: negative log10 of molar concentration, which is what pIC50 denotes.

I'd like to know its pIC50. The molecule in question is N=C(N)NCCNC(=O)c1cn2c3c(c(NCCN4CCCC4)c(F)cc3c1=O)Oc1cc3ccccc3cc1-2 [compound 1653]
6.47

What about CN1CCCC1CCNC(=O)c1cn2c3c(c(NCCc4ccc(O)cc4)c(F)cc3c1=O)Oc1cc3ccccc3cc1-2 (stereo not shown) [compound 1681] ?
6.12

What about CN1CCCC1CCNC(=O)c1cn2c3c(c(NC4CC(C)(C)NC(C)(C)C4)c(F)cc3c1=O)Oc1cc3ccccc3cc1-2 (stereo not shown) [compound 1478] ?
6.00

What about COCC(=O)N1CCN(c2c(F)cc3c(=O)c(C(=O)NCCN4CCCC4)cn4c3c2Oc2cc(Cl)ccc2-4)CC1 [compound 1825] ?
5.00

What about CN1CCC(Nc2c(F)cc3c(=O)c(C(=O)NCCC4CCCN4C)cn4c3c2Oc2cc3ccccc3cc2-4)CC1 (stereo not shown) [compound 1690] ?
6.12

----------
Kindly supply the reported IC50 values for the records listed here.
# tested_system: c-Myc template DNA (c-myc quadruplex)
# assay_notes: Quadruplex binding / stop assay (Taq polymerase arrest, capillary electrophoresis)
# setup_conditions: read-out: Stop Data c-Myc μM; concentration at which 50% of the DNA was arrested (arrested:full-length 1:1)
Note: unit µM is implicit; provide only the numeric part.

I'd like to know its IC50. The molecule in question is CC(C)(C)OC(=O)N[C@@H]1CCN(c2c(F)cc3c(=O)c(C(=O)NCCN4CCCC4)cn4c3c2Oc2cc3ccccc3cc2-4)C1 [compound 121]
1.75

What about O=C(NCCN1CCCC1)c1cn2c3c(c(NCCN4CCOCC4)c(F)cc3c1=O)Oc1cc3ccccc3cc1-2 [compound 58] ?
2.5

What about CN1CCN(c2c(F)cc3c(=O)c(C(=O)NCCCN4CCOCC4)cn4c5cc6c(=O)c7ccccc7c(=O)c6cc5oc2c34)CC1 [compound 172] ?
1.75

What about CN1CCCC1CCNC(=O)c1cn2c3c(c(NCC4CCNC4)c(F)cc3c1=O)Oc1cc3ccccc3cc1-2 (stereo not shown) [compound 559] ?
0.375

What about COc1cccc(CCNc2c(F)cc3c(=O)c(C(=O)NCCC4CCCN4C)cn4c3c2Oc2cc3ccccc3cc2-4)c1 (stereo not shown) [compound 289] ?
1.75

What about O=C(NCCN1CCCC1)c1cn2c3c(c(NCCN4CCOCC4)c(F)cc3c1=O)Oc1cc3c(cc1-2)oc1ccccc13 [compound 148] ?
1.75

What about NC1CCN(c2c(F)cc3c(=O)c(C(=O)NCCCCN4CCCC4)cn4c3c2Oc2cc3ccccc3cc2-4)C1 (stereo not shown) [compound 431] ?
0.75

What about CN1CCN(CCCNC(=O)c2cn3c4c(c(NCCN5CCCC5)c(F)cc4c2=O)Oc2c-3ccc3ccccc23)CC1 [compound 399] ?
0.75

What about CN1CCN(CCCNC(=O)c2cn3c4c(c(NCCCN5CCOCC5)c(F)cc4c2=O)Oc2c-3ccc3ccccc23)CC1 [compound 127] ?
1.75

What about CN1CCCC1CCNCC(=O)N[C@@H]1CCN(c2c(F)cc3c(=O)c(C(=O)N4CCCC4)cn4c3c2Oc2cc3c(cc2-4)oc2ccccc23)C1 (stereo partly shown) [compound 412] ?
0.75

What about N=C(N)NCCCCNC(=O)c1cn2c3c(c(N4CC5CCCNC5C4)c(F)cc3c1=O)Oc1cc3ccccc3cc1-2 (stereo not shown) [compound 328] ?
1

What about CN1CCN(CCCNC(=O)c2cn3c4cc5c(=O)c6ccccc6c(=O)c5cc4oc4c(N5CCC(NC(=O)OC(C)(C)C)C5)c(F)cc(c2=O)c43)CC1 (stereo not shown) [compound 169] ?
1.75

What about CN1CCCC1CCNC(=O)c1cn2c3cc4c(cc3oc3c(NCCN5CCCC5)c(F)cc(c1=O)c32)c(=O)c1ccccc14 (stereo not shown) [compound 575] ?
0.18

----------
# Test system: HeLa cells
# assay_notes: MTS cell proliferation and/or cytotoxicity assay
# Type: cell-based, Human
# setup_conditions: Homo sapiens, HeLa, 72 h, concentration at which 50% of antiproliferative cell response is seen; 3 days incubation; read-out: MTS Data Hella
# Excerpt: Cell culture. Human cervical epithelial cells (HeLa cells) were obtained from American Type Culture Collection (Manassas, Va.). […] MTS assays. […] The absorbance was read at 490 nm using FLUOstar Galaxy 96 well plate reader (BMG Labtechnologies, Germany). μM concentrations (MTS data) reported in Table 1 are concentrations at which 50% of antiproliferative cell response is seen.
measurement_name: IC50 (nM)
Note: unit nM is implicit; provide only the numeric part.

Test system HeLa cells; read-out IC50; what value for CN(C)CCCCNc1c(F)cc2c(=O)c(C(=O)NCCC3CCCN3C)cn3c4cc5c(cc4oc1c23)c(=O)c1ccccc15 (stereo not drawn) ?
4200

What about O=C(NCCN1CCCC1)c1cn2c3c(c(N4CC5CCCNC5C4)ccc3c1=O)Oc1cc3ccccc3cc1-2 (stereo not drawn) ?
200

What about O=C(NCCCN1CCOCC1)c1cn2c3cc4c(=O)c5ccccc5c(=O)c4cc3oc3c(NCCN4CCCC4)c(F)cc(c1=O)c32 ?
3300

What about CN(C)CCCCNc1c(F)cc2c(=O)c(C(=O)NCCC3CCCN3C)cn3c2c1Oc1c-3ccc2ccccc12 (stereo not drawn) ?
4000

What about O=C(NCCN1CCCC1)c1cn2c3c(c(N4CCC(c5cnccn5)C4)ccc3c1=O)Oc1cc3ccccc3cc1-2 (stereo not drawn) ?
2100

What about CN(C)CCCCNC(=O)c1cn2c3c(c(N4CC5CCCNC5C4)c(F)cc3c1=O)Oc1cc3ccccc3cc1-2 (stereo not drawn) ?
100

What about CN1CCCC1CCNC(=O)c1cn2c3c(c(N4CC[C@@H](NC(=O)CCN5CCCC5)C4)c(F)cc3c1=O)Oc1cc3c(cc1-2)oc1ccccc13 (stereo partly drawn) ?
3200

What about Nc1c(F)c(N2CCC(N)C2)c2c3c1c(=O)c(C(=O)O)cn3-c1cc3ccccc3cc1O2 (stereo not drawn) ?
7200

What about CC1(C)CC(NC(=O)c2cn3c4c(c(N5CCC(N)C5)c(F)cc4c2=O)Oc2cc4ccccc4cc2-3)CC(C)(C)N1 (stereo not drawn) ?
280

What about CN1CCCC1CCNC(=O)c1cn2c3c(c(N4CCC(N)C4)ccc3c1=O)Oc1cc3ccccc3cc1-2 (stereo not drawn) ?
750

What about CN1CCCC1CCNC(=O)c1cn2c3c(c(N4CC[C@@H](N)C4)c(F)cc3c1=O)Oc1cc3ccccc3cc1-2 (stereo partly drawn) ?
290

What about CN1CCCC1CCNc1c(F)cc2c(=O)c(C(=O)NCCN3CCOCC3)cn3c4cc5c(cc4oc1c23)c(=O)c1ccccc15 (stereo not drawn) ?
2200

What about CN1CCN(CCCNC(=O)c2cn3c4cc5c(cc4oc4c(N6CC[C@H](N)C6)c(F)cc(c2=O)c43)c(=O)c2ccccc25)CC1 ?
1900

What about CN1CCN(c2c(F)cc3c(=O)c(C(=O)NCCN4CCCC4)cn4c5cc6c(=O)c7ccccc7c(=O)c6cc5oc2c34)CC1 ?
8500

What about CN1CCN(CCCNC(=O)c2cn3c4c(c(NCCN5CCCC5)c(F)cc4c2=O)Oc2cc4c(cc2-3)oc2ccccc24)CC1 ?
3800

What about CN(C)/C=N/CCCCNC(=O)c1cn2c3c(c(N4CC[C@@H](N)C4)c(F)cc3c1=O)Oc1cc3ccccc3cc1-2 ?
4000

What about CCN(CC)CCCC(C)NC(=O)c1cn2c3c(c(N4CCC(c5cnccn5)C4)ccc3c1=O)Oc1ccccc1-2 (stereo not drawn) ?
2000

What about CN1CCCC1CCNC(=O)c1cn2c3c(c(NCCCN4CCOCC4)c(F)c(N)c3c1=O)Oc1cc3ccccc3cc1-2 (stereo not drawn) ?
1800

What about CN1CCCC1CCNC(=O)c1cn2c3c(c(NCCCN(CCO)CCO)c(F)cc3c1=O)Oc1cc3ccccc3cc1-2 (stereo not drawn) ?
400

What about NCCCCNC(=O)c1cn2c3c(c(N4CC[C@@H](N)C4)c(F)cc3c1=O)Oc1cc3ccccc3cc1-2 ?
750

What about CN1CCCC1CCNC(=O)c1cn2c3c(c(N[C@H]4CN5CCC4CC5)c(F)cc3c1=O)Oc1cc3ccccc3cc1-2 (stereo partly drawn) ?
310

What about CN1CCN(CCCNc2c(F)cc3c(=O)c(C(=O)NCCC4CCCN4C)cn4c3c2Oc2cc3c(cc2-4)oc2ccccc23)CC1 (stereo not drawn) ?
3800

What about CN1CCCC1CCNC(=O)c1cn2c3c(c(N4CC[C@H](N)C4)c(N)cc3c1=O)Oc1cc3ccccc3cc1-2 (stereo partly drawn) ?
900

What about CN1CCN(CCCNC(=O)c2cn3c4c(c(N5CC[C@@H](NC(=O)CCNCCC6CCCN6C)C5)c(F)cc4c2=O)Oc2cc4c(cc2-3)oc2ccccc24)CC1 (stereo partly drawn) ?
4500

What about CN1CCCC1CCNC(=O)c1cn2c3c(c(N4CCC(N)C4)c(F)cc3c1=O)Oc1cc(-c3nc4ccccc4s3)ccc1-2 (stereo not drawn) ?
2100

What about CN1CCCC1CCNC(=O)c1cn2c3c(c(N4CC5CCCNC5C4)c(F)cc3c1=O)Oc1cc3ccccc3cc1-2 (stereo not drawn) ?
100

What about CN1CCCC1CCNc1c(F)cc2c(=O)c(C(=O)NCCN3CCCC3)cn3c4cc5c(cc4oc1c23)c(=O)c1ccccc15 (stereo not drawn) ?
790
